Target: His-tagged cynomolgus monkey CD38 (ACRO Biosystems, CD8-05223 [sic]) (cynomolgus monkey) (UniProt Q5VAN0)
Assay: ELISA, 1 ug/ml scFv-Fc, coated His-tagged CD38
Entries and their measured ELISA signal follow.

binder	ELISA signal
40769p2.1.H12 scFv-Fc (scFv, part only; not given: Linker, domain order, Fc, V domains shown, not shown: another chain or arm of the molecule; a dimerising Fc or GST; small tags and cut ends) VH: EVQLLESGGGLIQPGGSLRLSCTASGFDFSSYGMHWVRQAPGKGLEWVGIISDSGGTTYYADSVKGRFTISRDNSKNTLYLQMNSLRAEDTALYYCASYIMDVWGQGITVTVSS VL: QSVLTQPPSASGTPGQRVTISCSGSNSNVGVNSVYWYQQLPGTAPKLLIYGSGRRPSGVPDRFSVSKSGTSASLAISGLQSEDEADYYCAAWDDGLNAWVFGGGTKLTVL	2.29
40769p2.1.E5 scFv-Fc (scFv, part only; not given: Linker, domain order, Fc, V domains shown, not shown: another chain or arm of the molecule; a dimerising Fc or GST; small tags and cut ends) VH: EVQLLESGGGLVQPGGSLRLSCTASAHIFKYNWMSWVRQAPGKGLEWVSSINSDGTITYYTDSVKGRFTISRDNSKNTLYLQMNSLRAEDTAVYYCAKDNWNDYAIDVWGQGTTVTVSS VL: QSVLTQPPSASGTPGQRVTISCSGSRSDIRNNYVSWYQQLPGTAPKLLIYSNGQRPSGVPDRFSGSKSGTSASLAISGLQSEDEADYYCAIWDDSLNAWVFGGGTKLTVL	2.1
40769p2.2.G3 scFv-Fc (scFv, part only; not given: Linker, domain order, Fc, V domains shown, not shown: another chain or arm of the molecule; a dimerising Fc or GST; small tags and cut ends) VH: EVQLLESGGGLVQPGGSLRLSCTASGITFSRFNMFWVRQAPGKGLEFVASIRDDGSWTYYADSVKGQFTISRDNSKNTLYLQMNSLRAEDTAVYYCAKDYSSKDFIYHYVMDVWGQGTTVTVSS VL: QSVLTQPPSASGTPGQRVTISCSGRNSNIGNNVVNWYQQLPGTAPKLLIYRNQERPSGVPDRFSGSKSGTSASLAISGLQSEDEADYYCASWDDSLNAWVFGRGTKLTVL	1.46
40769p2.1.C1 scFv-Fc (scFv, part only; not given: Linker, domain order, Fc, V domains shown, not shown: another chain or arm of the molecule; a dimerising Fc or GST; small tags and cut ends) VH: EVQLLESGGGLVQPGGSLRLSCAASGFSFSDYWMNWVRQAPGKGLEWVSTISSGGNMIYYADSVKGRFTISRDNSKNTLYLRMNSLRAEDTAVYYCAKDNWNDYYGMDVWGQGTTVTVSS VL: QSVLTQPPSASGTPGQRVTISCSGSSSNIRDNYVYWYQQVPGTAPKLLIYKDDQRPSGVPDRFSGSKSGSSASLAISGLQSEDEADYYCATWDGSLNARVFGGGTKLTVL	2.35
40769p2.1.G4 scFv-Fc (scFv, part only; not given: Linker, domain order, Fc, V domains shown, not shown: another chain or arm of the molecule; a dimerising Fc or GST; small tags and cut ends) VH: EVQLLESGGGLVQPGGSLRLSCAASGFTFTSHDMNWVRQAPGKGLEWVSTITTGGNTYYADSVKGRFTISRDNSKNTLYLQMTSLRAEDTAVYYCTKHYSMDVWGQGTTVTVSS VL: QSVLTQPPSASGTPGQRVTISCSGSTSNVVFNAVYWYQQLPGTAPKLLFYGKSQRPSGVPDRFSGSKSGTSASLAISGLQSEDEADYYCAAWDDTLNGWVFGGGTKLTVL	2.31
